Exercise: state measured Selectivity ratio for each of the compounds provided.
# Test summary: Relative affinities for type 1 and type 2 angiotensin II receptors
One number for each entry.

Reference set (5 entries):
[
  {
    "Chemical structure": "Cc1nc2ccc(N(Cc3ccccc3Cl)C(=O)c3ccccc3)cc2c(=O)n1Cc1ccc(-c2ccccc2-c2nn[nH]n2)cc1",
    "Quantitative result": 1110
  },
  {
    "Chemical structure": "CCc1nc2ccc(N(Cc3ccccc3)C(=O)OCC(C)C)cc2c(=O)n1Cc1ccc(-c2ccccc2-c2nn[nH]n2)cc1",
    "Quantitative result": 48.5
  },
  {
    "Chemical structure": "CCc1nc2ccc(N(Cc3ccccc3)C(=O)c3ccccc3)cc2c(=O)n1Cc1ccc(-c2ccccc2-c2nn[nH]n2)cc1",
    "Quantitative result": 327
  },
  {
    "Chemical structure": "CCc1nc2ccc(N(Cc3ccccc3Cl)C(=O)c3ccccc3)cc2c(=O)n1Cc1ccc(-c2ccccc2-c2nn[nH]n2)cc1",
    "Quantitative result": 891
  },
  {
    "Chemical structure": "CC(C)c1nc2ccc(N(Cc3ccccc3)C(=O)c3cccs3)cc2c(=O)n1Cc1ccc(-c2ccccc2-c2nn[nH]n2)cc1",
    "Quantitative result": 175
  }
]

Quick batch: Selectivity ratio for everything below.
1. CC(C)c1nc2ccc(N(Cc3ccccc3)C(=O)c3ccccc3)cc2c(=O)n1Cc1ccc(-c2ccccc2-c2nn[nH]n2)cc1
2. CCc1nc2ccc(N(Cc3ccccc3)C(=O)c3ccncc3)cc2c(=O)n1Cc1ccc(-c2ccccc2-c2nn[nH]n2)cc1

1: 3430; 2: 170

Hello, I would appreciate it if you could give Selectivity ratio for each entry below.
1. CCc1nc2ccc(N(CC=C(C)C)C(=O)c3ccccc3)cc2c(=O)n1Cc1ccc(-c2ccccc2-c2nn[nH]n2)cc1
2. CCCCc1nc2ccc(N(Cc3ccccc3)C(=O)OCC(C)C)cc2c(=O)n1Cc1ccc(-c2ccccc2-c2nn[nH]n2)cc1
3. CCCc1nc2ccc(N(Cc3ccccc3)C(=O)OCC(C)C)cc2c(=O)n1Cc1ccc(-c2ccccc2-c2nn[nH]n2)cc1
4. CCCc1nc2ccc(N(Cc3ccccc3)C(=O)c3ccccc3)cc2c(=O)n1Cc1ccc(-c2ccccc2-c2nn[nH]n2)cc1

79
0.2
8.2
2.4

Selectivity ratio lookup needed for CCc1nc2ccc(N(Cc3ccccc3)C(=O)c3cccs3)cc2c(=O)n1Cc1ccc(-c2ccccc2-c2nn[nH]n2)cc1 , thanks.
3330
